- assay_target: Serine/threonine-protein kinase PAK 1 (Homo sapiens, UniProt Q13153)
- Sequence (Q13153 whole entry, the tested form may be a part): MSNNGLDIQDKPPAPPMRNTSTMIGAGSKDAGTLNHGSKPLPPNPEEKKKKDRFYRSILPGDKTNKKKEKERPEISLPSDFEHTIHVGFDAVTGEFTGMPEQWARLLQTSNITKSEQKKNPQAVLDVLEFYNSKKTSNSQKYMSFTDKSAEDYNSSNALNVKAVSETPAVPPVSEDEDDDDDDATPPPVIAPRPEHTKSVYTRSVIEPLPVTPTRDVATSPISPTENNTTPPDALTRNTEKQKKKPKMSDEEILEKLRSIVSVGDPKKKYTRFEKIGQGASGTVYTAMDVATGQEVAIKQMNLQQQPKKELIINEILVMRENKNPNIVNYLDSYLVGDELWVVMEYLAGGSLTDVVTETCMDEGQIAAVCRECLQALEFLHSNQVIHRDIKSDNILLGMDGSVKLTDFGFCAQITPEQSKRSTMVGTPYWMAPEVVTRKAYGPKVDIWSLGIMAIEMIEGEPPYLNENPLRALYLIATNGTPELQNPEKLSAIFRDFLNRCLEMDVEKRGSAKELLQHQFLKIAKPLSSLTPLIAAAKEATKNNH
- method_summary: Inhibition of PAK1 in human EBC1 cells assessed as inhibition of MEK phosphorylation at S298 after 2 hrs by HTRF assay
So I've got a bunch of molecules here, and I need their pIC50 values.
Please treat pIC50 as minus the base-10 logarithm of the molar concentration.

pIC50 for N[C@H]1CC[C@H](CNc2nccc(Nc3cc(C4CC4)[nH]n3)n2)CC1 ?
5.66

Recorded pIC50 for Clc1c(CNc2nccc(Nc3cc(C4CC4)[nH]n3)n2)ccc2[nH]cnc12 , please?
6.44

Quick check: pIC50 of C[C@H](Nc1nccc(Nc2cc(C3CC3)[nH]n2)n1)c1ccc2[nH]cnc2c1 ?
6.55

What pIC50 value was documented for this molecule, C[C@H](Nc1nccc(Nc2cc(C3CC3)[nH]n2)n1)c1ccc2[nH]ccc2c1 ?
6.92

May I ask what pIC50 has been recorded for CN(Cc1ccc2[nH]cnc2c1Cl)c1nccc(Nc2cc(C3CC3)[nH]n2)n1 ?
6.96

# pIC50 lookup, item CCN(Cc1ccc2[nH]cnc2c1Cl)c1nccc(Nc2cc(C3CC3)[nH]n2)n1
7.07

----------
- assay_target: Serine/threonine-protein kinase PAK 1 (Homo sapiens)
- method_summary: Inhibition of human recombinant PAK1 kinase domain using coumarin/fluorescein-labeled FRET peptide as substrate assessed as substrate phosphorylation at Ser/Thr19 preincubated for 10 mins followed by ATP addition measured after 60 mins by Z'-LYTE assay
Could you please mark yes (1) for values of Ki below 50 nM and no (0) for values at or above it?

A record lists NC1CCN(c2cc(Nc3cc(C4CC4)[nH]n3)ccn2)CC1 . Is its Ki below 50 nM?
no (0)

Lab log: compare recorded Ki with 50 nM; is it strictly lower for Clc1c(CNc2nccc(Nc3cc(C4CC4)[nH]n3)n2)ccc2[nH]cnc12 ?
yes (1)

Confirm or reject: Ki of C[C@H](Nc1nccc(Nc2cc(C3CC3)[nH]n2)n1)c1ccc2[nH]cnc2c1 lies strictly below 50 nM
yes (1)

Determine if NC1CCN(c2cccc(Nc3cc(C4CC4)[nH]n3)n2)CC1 shows Ki strictly lower than 50 nM.
no (0)

hey, is Ki for C[C@@H](Nc1nccc(Nc2cc(C3CC3)[nH]n2)n1)c1ccc2[nH]ccc2c1 lower than 50 nM or not?
no (0)

Hello, is Ki of the following compound strictly smaller than 50 nM? NC1CCN(c2nc(Nc3cc(C4CC4)[nH]n3)c3occc3n2)CC1
no (0)

hey, is Ki for N[C@H]1CC[C@@H](CNc2nccc(Nc3cc(C4CC4)[nH]n3)n2)CC1 lower than 50 nM or not?
yes (1)

Hello, is Ki of the following compound strictly smaller than 50 nM? Cn1cnc2ccc(CNc3nccc(Nc4cc(C5CC5)[nH]n4)n3)cc21
no (0)

Strictly below 50 nM in Ki? Nc1ccc(CNc2nccc(Nc3cc(C4CC4)[nH]n3)n2)cn1
no (0)

Determine if CCCc1cc(Nc2nc(N3CCC(N)CC3)nc3ccsc23)n[nH]1 shows Ki strictly lower than 50 nM.
yes (1)

----------
- method_summary: Lipophilicity, log D of the compound at pH 7.4
- Assay type: physicochemical
- condition_details: buffer
Assignment: determine reported logD for the given compounds.
Output spec: single numeric token, no unit.

What value of logD has been reported for the following compound? c1cc(Nc2cc(C3CC3)[nH]n2)nc(NCc2ccc3[nH]cnc3c2)n1
2.5

Query: logD; subject: c1cc(Nc2cc(C3CC3)[nH]n2)nc(NCc2ccc3[nH]ccc3c2)n1
3

----------
Can you tell me clearance for the items I'm about to list?
- method_summary: Plasma clearance in rat at 2 mg/kg, iv administered as bolus dose
- Format: ADME, organism-based
Provide the reading as a plain figure in mL/min/kg.

Value lookup for clearance; key = c1cc(Nc2cc(C3CC3)[nH]n2)nc(NCc2ccc3[nH]ccc3c2)n1
30.1

Entry C[C@H](Nc1nccc(Nc2cc(C3CC3)[nH]n2)n1)c1ccc2[nH]cnc2c1 : reported clearance = ?
20.3

Data request, read-out clearance, for Nc1ccc(CNc2nccc(Nc3cc(C4CC4)[nH]n3)n2)cn1
122

Item C[C@H](Nc1nccc(Nc2cc(C3CC3)[nH]n2)n1)c1ccc2[nH]ccc2c1 has what recorded clearance?
30

For c1cc(Nc2cc(C3CC3)[nH]n2)nc(NCc2ccc3[nH]cnc3c2)n1 , what is its reported clearance?
24.1

----------
Consider the following molecules; for each one, report its fraction unbound.
- method_summary: Plasma protein binding in rat
- Assay type: ADME, cell-free
- condition_details: read-out: PPB (converted)
Provide a numeric answer; units are not to be included.

Query (molecule): CN(Cc1ccc2[nH]cnc2c1Cl)c1nccc(Nc2cc(C3CC3)[nH]n2)n1 ; field requested: fraction unbound
0.011

Consider the molecule shown here: Clc1c(CNc2nccc(Nc3cc(C4CC4)[nH]n3)n2)ccc2[nH]cnc12 What is its recorded fraction unbound?
0.002

Reported fraction unbound, molecule C[C@H](Nc1nccc(Nc2cc(C3CC3)[nH]n2)n1)c1ccc2[nH]cnc2c1 : ____
0.011

Need fraction unbound, item CCN(Cc1ccc2[nH]cnc2c1Cl)c1nccc(Nc2cc(C3CC3)[nH]n2)n1
0.007

----------
Provide the recorded pKi for the entries that follow.
- assay_target: Serine/threonine-protein kinase PAK 4 (Homo sapiens)
- Sequence (O96013 whole entry, the tested form may be a part): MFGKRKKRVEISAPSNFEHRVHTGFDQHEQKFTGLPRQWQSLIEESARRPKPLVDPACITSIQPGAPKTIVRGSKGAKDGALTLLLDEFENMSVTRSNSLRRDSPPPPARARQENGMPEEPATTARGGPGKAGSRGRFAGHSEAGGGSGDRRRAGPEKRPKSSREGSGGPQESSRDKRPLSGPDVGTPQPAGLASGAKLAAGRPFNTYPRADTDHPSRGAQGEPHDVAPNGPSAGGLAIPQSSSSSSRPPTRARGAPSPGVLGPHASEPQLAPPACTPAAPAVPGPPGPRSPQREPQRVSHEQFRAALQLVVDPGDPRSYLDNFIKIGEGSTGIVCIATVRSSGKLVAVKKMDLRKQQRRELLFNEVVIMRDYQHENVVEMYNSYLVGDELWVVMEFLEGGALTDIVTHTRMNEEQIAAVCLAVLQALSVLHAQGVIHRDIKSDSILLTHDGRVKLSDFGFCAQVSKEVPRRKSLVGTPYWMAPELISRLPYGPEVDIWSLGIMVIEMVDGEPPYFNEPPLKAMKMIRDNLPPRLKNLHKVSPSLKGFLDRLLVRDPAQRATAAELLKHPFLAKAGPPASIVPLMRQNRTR
- method_summary: Inhibition of human recombinant PAK4 kinase domain using coumarin/fluorescein-labeled FRET peptide as substrate assessed as substrate phosphorylation at Ser/Thr19 preincubated for 10 mins followed by ATP addition measured after 60 mins by Z'-LYTE assay
Please treat pKi as minus the base-10 logarithm of the molar concentration.

Value lookup for pKi; key = c1cc(Nc2cc(C3CC3)[nH]n2)nc(NCc2ccc3[nH]ccc3c2)n1
6.84

# lookup: pKi of c1cc(Nc2cc(C3CC3)[nH]n2)nc(NCC2CCNCC2)n1
7.10

What does the record list as pKi for N[C@H]1CC[C@H](Nc2nccc(Nc3cc(C4CC4)[nH]n3)n2)CC1 ?
7.00

Fill in: pKi of C[C@H](Nc1nccc(Nc2cc(C3CC3)[nH]n2)n1)c1ccc2[nH]cnc2c1 is ___
6.97
